System: Bacillus subtilis
Assay: cleaved RNA product abundance (RNA/gDNA barcode ratio) relative to median wild-type variant (ratio to wild type); higher = more accumulation of the downstream cleavage product
Conditions: experiment (reporter, strain, medium): exp 8a: truncated aprE reporter, strain BJT201 with 2% xylose (RNase J1 expressed); cleavage site: glnRA (positions -5 to +31 mutated)
The entries below come with measured cleaved RNA product abundance values attached.
readout-label: cleaved RNA product abundance

- monomer-sequence: "CGACATGTCCCGCTTCTTTCATTATTCCGTAAGCGACTGTTTTGATATATACATTTACCTTTTAAGAGGGGGAAT"
  target-desc: "Bacillus subtilis"
  recorded-number: 0.359
- monomer-sequence: "CGACATGTCCCGCTTCTTTCATTATTCCGTTAGCAACTGTTTCGCTATATACATTTACCTTTTAAGAGGAGGAAT"
  target-desc: "Bacillus subtilis"
  recorded-number: 0.509
- monomer-sequence: "CGACATGTCCCGCTTCTTTCATTACTACGTTAGCAACTGTTTTGCTATATATATTTACCTTTTAAGAGGAGGAAT"
  target-desc: "Bacillus subtilis"
  recorded-number: 1.18
- monomer-sequence: "CGACATGTCCCGCTTCTTTCATTAATCCGTTAGCAACTGTTTTAAAATATACATTTACCTTTTAAGAGGAGGAAT"
  target-desc: "Bacillus subtilis"
  recorded-number: 0.571
- monomer-sequence: "CGACATGTCCCGCTTCTTTCATTAATCCTTTAGCAACTGTTTTGCTATATACAGTTACCTTTTAAGAGGAGGAAT"
  target-desc: "Bacillus subtilis"
  recorded-number: 0.604
- monomer-sequence: "CGACATGTCCCGCTTCTTTCATTAATCCGTTAGCAACTGATTTGCTATATACATTAACCTTTTAAGAGGAGGAAT"
  target-desc: "Bacillus subtilis"
  recorded-number: 1.33
- monomer-sequence: "CGACATGTCCCGCTTCTTTCATTAATCCGTTAGCAACCGTTTTGCTATATACATTTACCTTTTAAGAGGAGGAAT"
  target-desc: "Bacillus subtilis"
  recorded-number: 0.617
- monomer-sequence: "CGACATGTCCCGCTTCTTTCATTAATCCGTTAGCAACTGTTTTGCTATATACATTTAGCATTTAAGAGGAGGAAT"
  target-desc: "Bacillus subtilis"
  recorded-number: 0.755
- monomer-sequence: "CGACATGTCCCGCTTCTTTCATTATTCCGTTAGCAACTGTCTTGCTATATACATTTACCTTTTAAGAGGAGGAAT"
  target-desc: "Bacillus subtilis"
  recorded-number: 1.31
- monomer-sequence: "CGACATGTCCCGCTTCTTTCATTAATCCTTTAGCAACTGTTTTGATATATACATTTACCTTTTAAGAGGAGGAAT"
  target-desc: "Bacillus subtilis"
  recorded-number: 0.374
- monomer-sequence: "CGACATGTCCCGCTTCTTTCATTAATCCGTTAGAAACAGTTTTGCTATATATATTTACATTTTAAGAGGAGGAAT"
  target-desc: "Bacillus subtilis"
  recorded-number: 0.362
- monomer-sequence: "CGACATGTCCCGCTTCTTTCATTAATCCGTTAGCAACTGTTTTGGTAGATACATTTACCTTTTAAGAGGAGGAAT"
  target-desc: "Bacillus subtilis"
  recorded-number: 0.115
- monomer-sequence: "CGACATGTCCCGCTTCTTTCATTATTCCGATAGCAACTATTTTGCTATATACATTTACCTTTTAAGAGGAGGAAT"
  target-desc: "Bacillus subtilis"
  recorded-number: 1.85
- monomer-sequence: "CGACATGTCCCGCTTCTTTCATTACTGCGTTAGCAACTGTTTTGCTATATACATTTACCTTTTAAGAGGAGGAAT"
  target-desc: "Bacillus subtilis"
  recorded-number: 1.68
- monomer-sequence: "CGACATGTCCCGCTTCTTTCATTAATCCGTTAGGAACTGTTTTGCTATATACATTTACTTTTTAAGAGGAGGAAT"
  target-desc: "Bacillus subtilis"
  recorded-number: 0.247

Recorded values, source the supplement of paper PMC11780869.
